Origin of values: ChEMBL document CHEMBL3507680

Reported cytotoxicity at 70.5 h by item:
- assay-explanation: Human HepG2 cell viability assay in 384 well format
- Assay type: toxicity, cell-based
- Parameters: dose 125 nL, time 70.5 hour; concentration not given beside the values
- setup-conditions: HepG2 cells, read-out: Inhibition
Numbers only here, please. The scale is %.

# count of solved cases: 8
>>> assay_value("CC(C1CCN(Cc2ccc(N(C)C)nc2)CC1)N1CCOCC1 (stereo unspecified)")
8.61
>>> assay_value("Cc1nc2c(N(C)Cc3ccnn3C)nc(N)nc2n1C")
0.962
>>> assay_value("Cc1ncsc1C(=O)NCc1cccs1")
-16.4
>>> assay_value("Cc1nnc(NC(=O)NC2CCOc3ccccc32)s1 (stereo unspecified)")
-9.45
>>> assay_value("CC(C)CC(C)N(C)Cc1nnc(-c2ccco2)o1 (stereo unspecified)")
31.7
>>> assay_value("CC(C)N1CCC(Cc2cncc(-c3cccc(C(=O)O)c3)n2)CC1")
10.8
>>> assay_value("COc1ccc(CN2C[C@H]3CN(c4ccsc4)C(=O)[C@H]3C2)cc1")
-20.7
>>> assay_value("O=C(CN1CCCC1Cn1cncn1)NCCC1=CCCCC1 (stereo unspecified)")
1.2

Problem: Tell me measured cytotoxicity at 70.5 h for O=C1NCC[C@]12CN(Cc1ccco1)C[C@H]2c1ccccc1 please.
Solution: 1.63

Problem: Tell me measured cytotoxicity at 70.5 h for CCOC(=O)c1sc(NC(=O)CCCC(=O)O)c(C#N)c1C please.
Solution: -4.89

Problem: Tell me measured cytotoxicity at 70.5 h for Cc1nc(C(C)Nc2nc3c(s2)c(C)nn3C)n[nH]1 (stereo unspecified) please.
Solution: 15.8

Problem: Tell me measured cytotoxicity at 70.5 h for CCn1ccnc1CN1CCN(C(C)C(=O)NC2CCCCC2)CC1 (stereo unspecified) please.
Solution: 33.2

Problem: Tell me measured cytotoxicity at 70.5 h for Cc1cnc(CNCc2cn(CCN3CCSCC3)nc2C)cn1 please.
Solution: 24.8

Problem: Tell me measured cytotoxicity at 70.5 h for Cc1cnn(CC(C)NCc2cc(=O)n3cc(C)ccc3n2)c1 (stereo unspecified) please.
Solution: -6.57

Problem: Tell me measured cytotoxicity at 70.5 h for CNC(=O)[C@@H](C1CCCCC1)N1CCC[C@H]1C(=O)N(C)CCN(C)C please.
Solution: -4.67

Problem: Tell me measured cytotoxicity at 70.5 h for COc1ccc(-c2cnc(N(C)C)nc2C2CNCCO2)cc1 (stereo unspecified) please.
Solution: -4.32

Problem: Tell me measured cytotoxicity at 70.5 h for O=c1cc2c(nn1CN1CCN(c3cccc(Cl)c3)CC1)CCC2 please.
Solution: -6.87

Problem: Tell me measured cytotoxicity at 70.5 h for Cc1ccc2c(n1)N(CCn1cccn1)CCN(C(=O)NC(C)C)C2 please.
Solution: 21.7

###

- assay-explanation: Human HepG2 cell viability assay in 384 well format
- Format: toxicity, cell-based
- Set-up: dose 125 nL, time 70.5 hour; concentration not given beside the values
- setup-conditions: HepG2 cells, read-out: Inhibition
Reported cytotoxicity at 70.5 h by item:
Numbers only here, please. The scale is %.

>>> assay_value("C[C@@]1(O)CCN(Cc2cc[nH]n2)C[C@H]1Oc1cccc(F)c1")
-2.59
>>> assay_value("Cc1nc(N2CCCC2)ncc1C(=O)Nc1ccc(Br)cc1")
-2.71
>>> assay_value("Cc1nc(NC2(CN3CCCCC3)CCCCC2)c2cnn(C)c2n1")
-18.3
>>> assay_value("O=C(CSC1CCc2ccccc2NC1=O)NCc1cccs1 (stereo unspecified)")
-13.4
>>> assay_value("COc1cccc(CC(=O)N2CCC(O)(C(F)(F)F)C2)c1 (stereo unspecified)")
-4.06

Problem: Tell me measured cytotoxicity at 70.5 h for CCOCC1CN(Cc2cnn(C)c2)Cc2ncn(C)c21 (stereo unspecified) please.
Solution: -9.79

Problem: Tell me measured cytotoxicity at 70.5 h for CSCCCNC(=O)C1CCC(=O)N(C2CCCC2)C1 (stereo unspecified) please.
Solution: -3.06

Problem: Tell me measured cytotoxicity at 70.5 h for NC(=O)c1csc(N2C[C@@H](CN3CCCCC3)[C@@H](CO)C2)n1 please.
Solution: -6.7

Problem: Tell me measured cytotoxicity at 70.5 h for CCc1nc(C2CCCN2Cc2nc(Cc3ccccc3)no2)no1 (stereo unspecified) please.
Solution: -0.88

Problem: Tell me measured cytotoxicity at 70.5 h for COCCn1cc(NCc2c[nH]nc2C(C)(C)C)cn1 please.
Solution: -4.3
